// provenance: ChEMBL document CHEMBL5338756

- Tested On: Cannabinoid receptor 1 (Rattus norvegicus) (UniProt P20272)
- Sequence (P20272 whole entry): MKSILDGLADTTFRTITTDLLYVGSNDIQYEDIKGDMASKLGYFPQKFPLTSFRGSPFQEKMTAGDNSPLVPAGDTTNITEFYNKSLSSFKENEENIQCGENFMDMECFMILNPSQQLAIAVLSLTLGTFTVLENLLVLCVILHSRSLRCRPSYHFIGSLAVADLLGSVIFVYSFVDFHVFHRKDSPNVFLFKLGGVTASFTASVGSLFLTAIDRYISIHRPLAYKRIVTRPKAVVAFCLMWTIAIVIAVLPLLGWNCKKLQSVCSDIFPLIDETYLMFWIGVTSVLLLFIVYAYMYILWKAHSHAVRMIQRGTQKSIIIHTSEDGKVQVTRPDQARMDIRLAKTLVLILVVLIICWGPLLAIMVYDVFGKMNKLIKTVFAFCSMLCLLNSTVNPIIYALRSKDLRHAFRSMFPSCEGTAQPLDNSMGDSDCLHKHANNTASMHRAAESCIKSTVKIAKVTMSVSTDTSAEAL
- Assay Info: Displacement of [3H]CP55940 from rat brain membrane CB1 receptor at 10 uM incubated for 3 hrs by scintillation counter analysis relative to control
- Type: cell membranes
- Test Context: filed as agonist
Assay Metric: Activity

// solved cases for Activity follow
Record `CCN(CC)C(=O)c1ccc2c(c1)nc(Cc1ccc(OC(=O)N(C)Cc3ccccc3)cc1)n2CCC(C)C` . Reported Activity: 51%

Activity measured on `CCN(C)C(=O)Oc1ccc(Cc2nc3cc(C(=O)N(CC)CC)ccc3n2CCC(C)C)cc1` = 40%

What the record says about `CCOc1ccc(Cc2nc3cc(OC(=O)N4CCC4)ccc3n2CCC(C)C)cc1` : Activity is 41%

The recorded Activity for entry `CCOc1ccc(Cc2nc3cc(OC(=O)N(C)CC)ccc3n2CCC(C)C)cc1` equals 80%

Others:
Activity measured on `CCOc1ccc(Cc2nc3cc(OC(=O)N(C)C)ccc3n2CCC(C)C)cc1` = 57%

Measured Activity, `CCCN(C)C(=O)Oc1ccc(Cc2nc3cc(C(=O)N(CC)CC)ccc3n2CCC(C)C)cc1` : 46%

// field: Activity; key: `CCN(CC)C(=O)Oc1ccc(Cc2nc3cc(C(=O)N(CC)CC)ccc3n2CCC(C)C)cc1` ; value = 43%

`CCOc1ccc(Cc2nc3cc(OC(=O)N4CCCC4)ccc3n2CCC(C)C)cc1` has a reported Activity of 49%
